Biological target: SARS-CoV-2 spike RBD (WT) (Severe acute respiratory syndrome …, UniProt P0DTC2)
Test: ELISA
Design: unit not given here
Each record here notes measured binding score.
ASSAY_READOUT: binding score

binder="D040 (antibody, V domains shown) VH: QVQLVESGGGVVQPGRSLRLSCAASGFTFSSYGMHWVRQAPGKGLEWVTAISYDGSNKYYADSVRGRFTISRDNSKRTLYLQMNSLRAEDTAVYYCAKGVGPYCSGGSCYSPYFDYWGQGTLVTVSS VL: DIQMTQSPSSLSASIGDRVTITCQANQDISNYLNWYQQKPRKAPKLLIYDASDLETGVPSRFSGSGSGTDFTFTISSLQPEDIATYYCQQSDNLPLTFGGGTKVEIK" result_qualifier== value_measured=7.71
binder="C2722 (antibody, V domains shown) VH: EVQLVESGGGLVQPGGSLRLSCAASGFTFSSYSMNWVRQAPGKGLEWVSYISSSSSTIYYADSVKGRFTISRDNAKNSLYLQMNSLRAEDTAVYYCARDDGGGAYYDFWSGYYGDYWGQGTLVTVSS VL: EIVLTQSPATLSLSPGERATLSCRASQSVSSYLAWYQQKPGQAPRLLIYDASNRATGIPARFSGSGSGTDFTLTISSLEPEDFAVYYCQQRSNWPPFTFGPGTKVDIK" result_qualifier== value_measured=177
binder="D103 (antibody, V domains shown) VH: QVQLVESGGGVVQPGRSLRLSCAASGFTFSSYGMHWVRQAPGKGLEWVAVISYDGSNKYYADSVKGRFTISRDNSKNTLYLQMNSLRAEDTAVYYCAKGGYYDSSAYYGPLDYWGQGTLVTVSS VL: SYVLTQPPSVSVAPGKTARITCGGNNIGSKSVHWYQQKPGQAPVLVVYDDSDRPSGIPERFSGSNSGNTATLTISRVEAGDEADYYCQVWDSSSDHWVFGGGTKLTVL" result_qualifier=> value_measured=10000
